Reference source for all entries: patent US10144738B2

Kindly supply the reported pIC50 values for the records listed here.
# systemTested: JAK2 (Homo sapiens (Human))
# assayName: JAK Caliper enzyme assay at 1 mM ATP (JAK2)
# measurementParameters: recombinant human kinase domain, Caliper mobility shift
Numbers only, as −log10 of the molar value.

Worked examples, 5 molecules total:
Sample CO[C@H]1C[C@](CC#N)(n2cc(-c3nc(-c4cc(N)[nH]n4)cn4nccc34)cn2)C1 — what was its pIC50?
7.15

Sample N#CC[C@]1(n2cc(-c3nc(-c4cc(C(N)=O)no4)cn4nccc34)cn2)C[C@H](C#N)C1 — what was its pIC50?
5.52

Sample CO[C@H]1C[C@@](CC#N)(n2cc(-c3nc(-c4cc(C(N)=O)n[nH]4)cn4nccc34)cn2)C1 — what was its pIC50?
6.47

Sample CNC(=O)c1cc(-c2cn3nccc3c(-c3cnn([C@]4(CC#N)C[C@@H](OC)C4)c3)n2)[nH]n1 — what was its pIC50?
6.30

Sample N#CCC1(n2cc(-c3nc(-c4cc(CO)[nH]n4)cn4nccc34)cn2)CN(CC2CC2)C1 — what was its pIC50?
6.52

Dear reader, for each entry below, please note its pIC50.
1. CO[C@H]1C[C@](CC#N)(n2cc(-c3nc(-c4cn(C)nc4CO)cn4nccc34)cn2)C1
2. Cn1cc(-c2cn3nccc3c(-c3cnn(C4(CC#N)CN(S(=O)(=O)C5CC5)C4)c3)n2)cn1
3. Cn1cc(-c2cn3nccc3c(-c3cnn([C@]4(CC#N)C[C@@H](C#N)C4)c3)n2)c(CO)n1
4. Cc1nn([C@]2(CC#N)C[C@@H](C#N)C2)cc1-c1nc(-c2cnn(C)c2)cn2nccc12
5. Cn1cc(-c2cn3nccc3c(-c3cnn([C@]4(CC#N)C[C@@H](C#N)C4)c3)n2)c(=O)[nH]1

6.49
7.31
6.90
6.96
6.78

Dear reader, for each entry below, please note its pIC50.
1. Cn1cc(-c2cn3nccc3c(-c3cnn(C4(CC#N)CCC4)c3)n2)cn1
2. CCC(=O)N1CC(CC#N)(n2cc(-c3nc(-c4cnn(C)c4)cn4nccc34)cn2)C1
3. CO[C@H]1C[C@](CC#N)(n2cc(-c3nc(-c4cc(N)n(C)n4)cn4nccc34)cn2)C1
4. Cc1cc2c(-c3cnn([C@]4(CC#N)C[C@@H](C#N)C4)c3)nc(-c3cnn(C)c3)cn2n1

1. 6.85
2. 5.80
3. 6.36
4. 6.12

###

# systemTested: JAK2 (Homo sapiens (Human), UniProt O60674)
# Sequence (O60674 849-1124): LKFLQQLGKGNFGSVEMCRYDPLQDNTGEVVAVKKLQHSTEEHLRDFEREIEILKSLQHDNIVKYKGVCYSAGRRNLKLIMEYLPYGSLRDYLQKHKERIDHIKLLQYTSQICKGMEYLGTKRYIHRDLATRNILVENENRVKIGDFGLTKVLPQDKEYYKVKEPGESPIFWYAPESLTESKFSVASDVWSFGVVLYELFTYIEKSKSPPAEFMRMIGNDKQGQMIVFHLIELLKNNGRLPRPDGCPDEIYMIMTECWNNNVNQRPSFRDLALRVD
# assayName: JAK Caliper enzyme assay at 1 mM ATP (JAK2)
# measurementParameters: recombinant human kinase domain, Caliper mobility shift
The threshold is 200 nM. Values of IC50 beneath it are tagged label 1; values meeting or exceeding it are tagged label 0.

Does Cc1cnn2cc(-c3cnn(C)c3)nc(-c3cnn([C@]4(CC#N)C[C@@H](C#N)C4)c3)c12 have IC50 strictly under 200 nM?
label 1

Others:
Does Cn1cc(-c2cn3nccc3c(-c3cnn([C@]4(CC#N)C[C@H](CC#N)C4)c3)n2)cn1 have IC50 strictly under 200 nM?
label 1

Does Cn1cc(-c2cn3nccc3c(-c3cnn([C@]4(CC#N)C[C@](C)(C#N)C4)c3)n2)cn1 have IC50 strictly under 200 nM?
label 1

Does Cn1cc(-c2cn3nccc3c(-c3cnn(C4(CC#N)CN(CC#N)C4)c3)n2)cn1 have IC50 strictly under 200 nM?
label 1

Does Cn1cc(-c2cn3nccc3c(-c3cnn([C@]4(CC#N)C[C@@](C)(C#N)C4)c3)n2)cn1 have IC50 strictly under 200 nM?
label 0

Does CO[C@H]1C[C@@](CC#N)(n2cc(-c3nc(-c4cnn(C)c4)cn4nccc34)cn2)C1 have IC50 strictly under 200 nM?
label 1
